Where do these numbers come from? They come from PubChem BioAssay (NCATS).

# procedure-details: BET inhibitor-based combinations targeting novel dependencies in MECOM-rearranged (r) AML: UCSD-AML1 cell line (AID 2202235); also: nearly all actives have a fitted effect of over 40% in size
# condition-summary: UCSD-AML1 AML cells viability, CellTiter-Glo, 48 h; series mostly up to 46 µM
Records with an inconclusive call do not appear. Calls of active or inactive are those of the source. Calls follow the shape of the dose curve; as a rule, active = well fitted inhibition curve with a large enough effect; inconclusive = small, poorly fitted or top-dose-only effect; inactive = no such curve, though single readings can be large or run the other way.
Lab note: assign the record to one of t for active, f for inactive

Study these solved cases before continuing.
| smiles-code | label-class |
| --- | --- |
| Cn1c(=O)c(F)c(Nc2ccc(I)cc2F)c2c(=O)n(C[C@@H](O)CO)cnc21 | t |
| CNc1nccc(-c2cccnc2Oc2cc(C(=O)Nc3cccc(C(F)(F)F)c3)ccc2C)n1 | t |
| O=C(Cc1cccc(OC(F)(F)F)c1)Nc1ccc(CCCCc2nnc(NC(=O)Cc3ccccn3)s2)nn1 | t |
| CO[C@@H](C(=O)N1Cc2[nH]nc(NC(=O)c3ccc(N4CCN(C)CC4)cc3)c2C1)c1ccccc1 | t |
| CCC(=O)N1CCN(c2ccc(-n3c(=O)ccc4cnc5ccc(-c6cnc7ccccc7c6)cc5c43)cc2C(F)(F)F)CC1 | t |
| Oc1ccc(-c2ccc(-c3cc(Nc4cccc(CNC5CC5)c4)n[nH]3)cc2)c(O)c1 | t |
| C#CCN[C@@H]1CCc2ccccc21 | f |
| CC1=C(CO)C(=O)O[C@@H]([C@@H](C)[C@H]2CC[C@H]3[C@@H]4C[C@H]5O[C@]56[C@@H](O)C=CC(=O)[C@]6(C)[C@H]4CC[C@]23C)C1 | t |

// switching to the query compound
Ask: Can you look up the reported call for `NC(=O)c1ccc(I)c([N+](=O)[O-])c1` for me?
Reply: f

---

# target-entity: Cellular tumor antigen p53 (Homo sapiens) (UniProt P04637)
# Sequence (P04637 whole entry, looked up): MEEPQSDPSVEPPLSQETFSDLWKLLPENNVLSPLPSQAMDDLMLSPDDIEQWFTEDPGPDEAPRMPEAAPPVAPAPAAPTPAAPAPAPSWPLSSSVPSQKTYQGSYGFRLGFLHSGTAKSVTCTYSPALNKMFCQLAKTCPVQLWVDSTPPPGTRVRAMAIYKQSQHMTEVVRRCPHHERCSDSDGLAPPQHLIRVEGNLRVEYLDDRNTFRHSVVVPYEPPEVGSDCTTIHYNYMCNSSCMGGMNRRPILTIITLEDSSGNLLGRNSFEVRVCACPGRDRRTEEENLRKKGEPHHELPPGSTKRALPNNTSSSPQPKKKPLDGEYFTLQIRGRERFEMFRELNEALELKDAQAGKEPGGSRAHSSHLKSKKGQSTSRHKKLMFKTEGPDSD
# procedure-details: Primary qHTS for small molecule compounds that upregulate eGFP-tagged delta133p53alpha (in N-terminal) cells. (AID 2060322);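 also: cells pre-induced with doxycycline then dosed without doxycycline; 0% = DMSO vehicle and 100% = reference activator; nearly all actives have a fitted effect of over 75% in size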
# condition-summary: NCI-H358 eGFP-delta133p53alpha fluorescence, 24 h; stronger effect = higher value
Inconclusive results are not listed.
Known activation of a selection of compounds
Give the value in % but do not write % after it.

Recorded activation, per entry:
| compound | target-entity | activation, % |
| --- | --- | --- |
| Cc1cc(NC(=O)Nc2ccc(F)c(F)c2)n(-c2ccccc2)n1 | Cellular tumor antigen p53 (Homo sapiens) (UniProt P04637) | -15.8 |
| CC(=O)c1c(C)cccc1O[C@@H]1O[C@H](CO)[C@@H](O)[C@H](O)[C@H]1O | Cellular tumor antigen p53 (Homo sapiens) (UniProt P04637) | 13 |
| Cc1[nH]c(/C=C2\C(=O)Nc3cc(-c4ccccc4)ccc32)c(C)c1CCC(=O)O | Cellular tumor antigen p53 (Homo sapiens) (UniProt P04637) | -26.3 |
| C=C(C(=O)OC)[C@]12O[C@@](C)(CC[C@@]3(O)/C(=C\C)C(=O)O[C@]3(C)C[C@@H]1OC(=O)C(CO)CN1CCCC1C(=O)O)CC2=O (some centres not stated) | Cellular tumor antigen p53 (Homo sapiens) (UniProt P04637) | -18.8 |
| Nc1ccc(C(=O)Nc2ccccc2N)cc1 | Cellular tumor antigen p53 (Homo sapiens) (UniProt P04637) | -7.53 |

The recorded activation for entry O=C(O)CCCCC(CCSCc1ccccc1)SCc1ccccc1 (configuration not stated) equals 1.42

The recorded activation for entry `COC(=O)C1=CO[C@@H](O[C@@H]2O[C@H](CO)[C@@H](O)[C@H](O)[C@H]2O)[C@@H]2[C@@](C)(O)[C@@H](O)C[C@]12O` equals -2.29
